Numbers sourced from PubChem BioAssay (NCI).

test system: HS 578T breast; experiment: NCI tumour cell line growth inhibition, 48 h; in the data active = GI50 below about 0.43 µM; inactive = the rest
Hello, when you answer, please use one of the following outcomes: label 1 for active, label 0 for inactive

For orientation, consider the following solved cases.
Lookup: I would be grateful if you could indicate the recorded call for "CN(C)c1ccc(C(=S)c2ccc(N(C)C)cc2)cc1" .
Found: label 0

Lookup: Answer briefly: the call reported for "COc1ccc2[nH]c(Cl)c(/C=C3/C(=O)Nc4ccccc43)c2c1" in this assay.
Found: label 0

Lookup: Kindly provide the recorded test outcome for the following molecule: C[C@@H]1CC[C@H]2[C@@H](C)C(O)O[C@@H]3O[C@]4(C)CC[C@@H]1[C@]32OO4 (stereo partly specified)
Found: label 0

Others:
Lookup: Outcome? Cc1c(C)c2c(c(C)c1OC(=O)CCC(=O)[O-])CCC(C)(CCCCCCCCCCC[P+](c1ccccc1)(c1ccccc1)c1ccccc1)O2 (stereo unspecified)
Found: label 1

Lookup: Hey, what did the test say about "Oc1ccc(NC(=S)Nc2ccccc2)cc1" ?
Found: label 0

Lookup: Outcome logged for "COc1ccccc1-n1cnc(N)c1C(=O)c1cc(OC)c(OC)c(OC)c1" in this assay:
Found: label 0

Lookup: What call does the record list for "O=C(COc1ccc(/C=C2\Oc3ccc4ccccc4c3C2=O)cc1)c1ccc([N+](=O)[O-])cc1" ?
Found: label 0

Lookup: Tell me the recorded outcome of this test for "Cc1nnc(C[C@@H]2C=C(c3ccc(Cl)cc3)c3ccccc3-n3c(C)nnc32)o1" .
Found: label 0
